- system-tested: FAAH (Rattus norvegicus)
- Construct: Frozen brains (without cerebellum) from Wistar rats were used; from tissue; host or cells: Wistar rat brain (without cerebellum), washed membrane pellets
- Sequence (P97612 whole entry): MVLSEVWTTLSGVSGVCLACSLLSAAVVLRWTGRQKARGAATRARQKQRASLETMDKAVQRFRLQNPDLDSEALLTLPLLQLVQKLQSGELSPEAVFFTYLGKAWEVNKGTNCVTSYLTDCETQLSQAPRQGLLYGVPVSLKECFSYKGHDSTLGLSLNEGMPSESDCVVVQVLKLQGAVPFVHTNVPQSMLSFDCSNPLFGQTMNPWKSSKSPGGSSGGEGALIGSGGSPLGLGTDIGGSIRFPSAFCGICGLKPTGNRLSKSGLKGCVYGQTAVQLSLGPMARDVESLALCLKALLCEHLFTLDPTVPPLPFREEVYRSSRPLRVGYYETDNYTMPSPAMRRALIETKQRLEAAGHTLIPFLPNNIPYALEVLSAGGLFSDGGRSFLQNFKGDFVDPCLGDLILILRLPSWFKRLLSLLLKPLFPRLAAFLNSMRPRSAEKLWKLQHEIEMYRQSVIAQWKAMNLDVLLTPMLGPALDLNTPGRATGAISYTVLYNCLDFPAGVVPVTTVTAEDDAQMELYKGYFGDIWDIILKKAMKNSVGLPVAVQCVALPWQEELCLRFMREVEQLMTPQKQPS
- assay-name: In vitro FAAH activity in rat brain membranes, 3H-AEA substrate, % of control
- Format: biochemical, Wistar rats
- measurement-parameters: 100 nM test compound, low value = strong inhibitor
Measured In Vitro FAAH activity, 100 nM by item

[[record]]
molecule = "CC(=O)N1CCN(C(=O)n2nnc3ccccc32)CC1"
value_measured = "94.5 % of control"


In: Annotate the molecule CCC1(C)OCCN1C(=O)n1cnc(-c2ccc(Cl)cc2)c1 (stereo not drawn) with its measured In Vitro FAAH activity, 100 nM.
Out: 74.1 % of control

In: Could you please provide reported In Vitro FAAH activity, 100 nM for `CN(Cc1ccccc1)C(=O)n1cnc(-c2ccc3ccccc3c2)n1` ? Thanks!
Out: 20.7 % of control

In: Give the value of In Vitro FAAH activity, 100 nM reported for the following: `COc1ccc(-c2ncn(C(=O)N3COCC3(C)C)n2)cc1`
Out: 103.3 % of control

In: Give reported In Vitro FAAH activity, 100 nM value for `Cl.O=C(N1CCN(Cc2ccccc2)CC1)n1cnc(-c2ccccc2)n1`
Out: 1.5 % of control

In: Give reported In Vitro FAAH activity, 100 nM value for `CN(CCc1ccccc1)C(=O)n1nnc2ccccc21`
Out: 0 % of control

In: Could you please provide reported In Vitro FAAH activity, 100 nM for O=C(N1CCOC1c1ccccc1)n1cnc(-c2ccc(Cl)cc2)c1 (stereo not drawn) ? Thanks!
Out: 76.5 % of control

In: Hello, please tell me recorded In Vitro FAAH activity, 100 nM for this one: `O=C(N1CCC(CCc2ccccc2)CC1)n1nnc2ccccc21`
Out: 0.2 % of control

In: Specify measured In Vitro FAAH activity, 100 nM for `O=C(OCCN(C(=O)n1cnc(-c2ccccc2)c1)C1=CCCC1)n1cnc(-c2ccccc2)c1` .
Out: 78.2 % of control

----------
- system-tested: FAAH (Mus musculus, UniProt O08914)
- Construct: A fragment of liver, left lung lobe and brain without cerebellum were removed; from tissue; host or cells: male NMRI mice; brain (without cerebellum) and liver homogenates
- Sequence (O08914 1-579): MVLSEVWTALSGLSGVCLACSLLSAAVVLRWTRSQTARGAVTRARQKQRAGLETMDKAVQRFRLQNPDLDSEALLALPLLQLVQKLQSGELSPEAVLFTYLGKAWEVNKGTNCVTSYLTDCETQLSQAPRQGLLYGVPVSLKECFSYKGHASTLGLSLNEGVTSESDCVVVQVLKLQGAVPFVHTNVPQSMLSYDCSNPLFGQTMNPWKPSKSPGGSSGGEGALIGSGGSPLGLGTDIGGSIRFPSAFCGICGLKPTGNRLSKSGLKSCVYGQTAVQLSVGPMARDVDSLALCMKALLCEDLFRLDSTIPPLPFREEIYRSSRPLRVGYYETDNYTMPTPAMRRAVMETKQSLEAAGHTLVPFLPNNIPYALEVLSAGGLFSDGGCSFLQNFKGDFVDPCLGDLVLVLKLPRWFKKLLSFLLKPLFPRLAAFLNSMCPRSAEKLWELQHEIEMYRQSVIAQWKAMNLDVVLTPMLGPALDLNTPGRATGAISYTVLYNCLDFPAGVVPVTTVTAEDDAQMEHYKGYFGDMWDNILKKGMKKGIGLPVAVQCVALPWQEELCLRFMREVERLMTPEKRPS
- assay-name: In vivo FAAH inhibition after oral dosing, remaining activity in liver homogenate (LVh, peripheral tissue)
- Set-up: species or system NMRI mice
- measurement-parameters: liver homogenate, 3 mg/kg, 8 h after dosing; low value = strong inhibitor
recorded-endpoint: In Vivo LVh 3 mg·kg 8 h (remaining FAAH activity, % of control)

In: State In Vivo LVh 3 mg·kg 8 h (remaining FAAH activity, % of control) (FAAH (Mus musculus, UniProt O08914)) of `CN(C(=O)n1cnc(-c2ccc(O)c(N)c2)c1)C1CCCCC1.Cl` .
Out: 10.4 % of control

In: Look up and report In Vivo LVh 3 mg·kg 8 h (remaining FAAH activity, % of control), with FAAH (Mus musculus, UniProt O08914) as system, for `COc1cc(-c2cn(C(=O)N(C)C3CCCC3)cn2)ccc1F`
Out: 1.2 % of control

In: Quote FAAH (Mus musculus, UniProt O08914) In Vivo LVh 3 mg·kg 8 h (remaining FAAH activity, % of control) for entry `CN(C(=O)n1cnc(-c2ccc(O)c(F)c2)c1)C1CCCC1` .
Out: 4.9 % of control

In: Look up FAAH (Mus musculus, UniProt O08914) data: In Vivo LVh 3 mg·kg 8 h (remaining FAAH activity, % of control) of `COc1ccc(-c2cn(C(=O)N(C)C3CCCCC3)cn2)cc1NS(C)(=O)=O` , then report it.
Out: 15.1 % of control

In: Recall the reported In Vivo LVh 3 mg·kg 8 h (remaining FAAH activity, % of control) of `COc1ccc(-c2cn(C(=O)N3COCC3(C)C)cn2)cc1N` on FAAH (Mus musculus, UniProt O08914) and write it down.
Out: 9.4 % of control
